Data provenance is PubChem BioAssay (NCI).

Measured TGI accompanies every entry in the list below.
- Test system: SN12C renal
- experimental_details: NCI tumour cell line growth inhibition, 48 h

Past entries and their recorded results:
- O=C(N/C(=C/c1ccc(Cl)cc1Cl)c1nc2ccccc2s1)c1ccccc1: 23 µM
- Nc1cccc(/C=C/C(=O)N2CCN(CCOC(c3ccccc3)c3ccccc3)CC2)c1: 33.9 µM
- O=C(CCc1ccc(O)c(O)c1)NCCc1cc(O)cc(O)c1: > 100 µM
- O=C(c1ccc(Cl)cc1)N(C(=O)N1CCC(c2ccccc2)CC1)c1ccccc1: > 100 µM

Look up and state reported TGI for "O=C(Cn1c(=O)c(-c2ccccc2)nc2ccccc21)Nc1ccc(F)cc1" > 100 µM

Look up and state reported TGI for "NC(=O)c1cc2ccc(O)cc2oc1=Nc1ccccc1" 66 µM
